target: hFAP (M39-A757) (Homo sapiens (Human)); assay: hFAP binding assay (surface plasmon resonance); conditions: SPR, 20° C., single cycle kinetics
Sequence (Q12884 39-757): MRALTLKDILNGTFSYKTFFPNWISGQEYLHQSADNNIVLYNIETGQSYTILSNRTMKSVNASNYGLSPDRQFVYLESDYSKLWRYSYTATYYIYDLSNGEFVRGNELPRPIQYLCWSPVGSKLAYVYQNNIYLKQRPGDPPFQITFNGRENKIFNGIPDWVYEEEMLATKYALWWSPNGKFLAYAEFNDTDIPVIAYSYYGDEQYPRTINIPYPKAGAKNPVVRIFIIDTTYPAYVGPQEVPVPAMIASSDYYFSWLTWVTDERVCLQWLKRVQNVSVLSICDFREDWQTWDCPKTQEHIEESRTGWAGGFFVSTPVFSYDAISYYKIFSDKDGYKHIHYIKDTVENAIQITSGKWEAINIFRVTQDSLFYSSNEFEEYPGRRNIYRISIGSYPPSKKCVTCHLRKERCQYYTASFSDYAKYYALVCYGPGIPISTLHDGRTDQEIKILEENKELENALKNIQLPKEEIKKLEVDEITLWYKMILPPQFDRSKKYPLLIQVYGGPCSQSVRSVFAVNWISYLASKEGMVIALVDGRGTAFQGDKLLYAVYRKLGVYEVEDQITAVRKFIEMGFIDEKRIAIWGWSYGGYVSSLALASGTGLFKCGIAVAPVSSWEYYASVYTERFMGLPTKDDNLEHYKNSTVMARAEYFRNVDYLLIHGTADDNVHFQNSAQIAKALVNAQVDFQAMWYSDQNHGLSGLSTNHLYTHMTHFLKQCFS
experimental-endpoint: hFAP Binding assay k(off) (s⁻¹)
Answers are plain numbers, in s⁻¹.

CCC1(OC)CCN(c2ccc3nccc(C(=O)NCC(=O)N4CSC[C@H]4C#N)c3c2)CC1 [Example 191]: 0.000033

Fill in hFAP Binding assay k(off) for each of the 3 compounds listed.
1. N#C[C@@H]1CSCN1C(=O)CNC(=O)c1ccnc2ccc(N3CC4(CC(C(F)(F)F)C4)C3)cc12 [Example 150]
2. COc1ccc(-c2ccc3nccc(C(=O)NCC(=O)N4CSC[C@H]4C#N)c3c2)cn1 [Example 178]
3. N#C[C@@H]1CSCN1C(=O)CNC(=O)c1ccnc2ccc(N3CC(CF)C3)cc12 [Example 113]

## Result
1: 0.000043; 2: 0.00017; 3: 0.000045

---

target: UniProt Q12884; assay: hFAP inhibition assay; assay type: biochemical; conditions: hFAP […], Ala-Pro-AMC 20 μM; n = 1 or geometric mean n = 2-3
For each entry below, report its pIC50 value.
One number for each entry, as −log10 of the molar value.

N#C[C@@H]1CSCN1C(=O)CNC(=O)c1ccnc2ccc(N3CC4(COC4)C3)cc12: 9.47

Fill in pIC50 for each of the 2 molecules listed.
1. C[C@H]1COCCCN1c1ccc2nccc(C(=O)NCC(=O)N3CSC[C@H]3C#N)c2c1
2. N#C[C@@H]1CSCN1C(=O)CNC(=O)c1ccnc2ccc(-c3ccc(F)cn3)cc12

## Result
[9.48, 9.68]

---

molecular target: Prolyl endopeptidase, Prolyl Oligopeptidase (hPREP) (Homo sapiens (Human)); assay: hPrep inhibition assay; assay type: biochemical; conditions: hPREP 0.6 nM, Z-Gly-Pro-amino-methylcoumarin 50 μM; read-out: PREP IC50
Sequence (P48147 whole entry): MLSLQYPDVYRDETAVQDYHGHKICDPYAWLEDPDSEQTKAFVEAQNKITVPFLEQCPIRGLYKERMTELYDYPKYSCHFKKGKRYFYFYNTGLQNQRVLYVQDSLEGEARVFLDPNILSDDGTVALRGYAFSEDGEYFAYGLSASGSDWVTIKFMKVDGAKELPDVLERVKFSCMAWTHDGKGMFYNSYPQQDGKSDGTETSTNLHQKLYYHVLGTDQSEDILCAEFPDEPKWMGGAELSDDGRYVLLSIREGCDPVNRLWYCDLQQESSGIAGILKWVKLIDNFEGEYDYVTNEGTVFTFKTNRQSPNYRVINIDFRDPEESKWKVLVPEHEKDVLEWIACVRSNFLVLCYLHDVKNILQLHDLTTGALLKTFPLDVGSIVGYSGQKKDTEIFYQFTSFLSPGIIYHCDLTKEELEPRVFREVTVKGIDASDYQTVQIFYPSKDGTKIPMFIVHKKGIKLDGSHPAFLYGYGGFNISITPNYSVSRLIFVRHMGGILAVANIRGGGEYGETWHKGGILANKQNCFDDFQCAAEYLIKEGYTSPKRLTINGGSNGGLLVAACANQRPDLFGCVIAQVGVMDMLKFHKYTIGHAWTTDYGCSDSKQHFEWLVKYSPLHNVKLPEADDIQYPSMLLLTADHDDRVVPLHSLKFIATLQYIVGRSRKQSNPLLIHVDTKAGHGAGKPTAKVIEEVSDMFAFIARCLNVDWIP
experimental-endpoint: IC50 (nM)
Give bare numbers, in nM.

C[C@H]1CCCN1c1ccc2nccc(C(=O)NCC(=O)N3CSC[C@H]3C#N)c2c1: 100
CCC1(F)CN(c2ccc3nccc(C(=O)NCC(=O)N4CSC[C@H]4C#N)c3c2)C1: 470
N#C[C@@H]1CSCN1C(=O)CNC(=O)c1ccnc2ccc(N3CC(COC(F)(F)F)C3)cc12: 540
CCC1(O)CN(c2ccc3nccc(C(=O)NCC(=O)N4CSC[C@H]4C#N)c3c2)C1: 590
N#C[C@@H]1CSCN1C(=O)CNC(=O)c1ccnc2ccc(N3CCC[C@H](F)C3)cc12 (mixture of isomers): 280
CC(C)n1nccc1-c1ccc2nccc(C(=O)NCC(=O)N3CSC[C@H]3C#N)c2c1: 1900

Fill in IC50 for each of the 6 compounds listed.
1. N#C[C@@H]1CSCN1C(=O)CNC(=O)c1ccnc2ccc(N3C[C@H](O)C(F)(F)C3)cc12 (mixture of isomers)
2. CC1(C)CCN(c2ccc3nccc(C(=O)NCC(=O)N4CSC[C@H]4C#N)c3c2)C(=O)O1
3. CC1(CC(F)F)CN(c2ccc3nccc(C(=O)NCC(=O)N4CSC[C@H]4C#N)c3c2)C1
4. N#C[C@@H]1CSCN1C(=O)CNC(=O)c1ccnc2ccc(N3CC(F)C3)cc12
5. N#C[C@@H]1CSCN1C(=O)CNC(=O)c1ccnc2ccc(-c3ccnn3[C@H]3CCCCO3)cc12 (mixture of isomers)
6. N#C[C@@H]1CSCN1C(=O)CNC(=O)c1ccnc2ccc(N3CCOCC34CCC4)cc12

## Result
1. 670
2. 3600
3. 370
4. 93
5. 560
6. 650
